tested on: Saccharomyces cerevisiae; assay: protein stability index of tFT-peptide fusion (C-terminal peptide) (PSI (0-1 scale)); higher = more stable (slower turnover); details: genetic background: wild type; temperature: 30 C
reported_metric: protein stability index

1. LSPSPTSHSRLL
0.589
2. PLLSAFPPRPFP
0.682
3. LPLPTSPHPRPA
0.61
4. RREVFIPSTRVL
0.698

----------
system: Saccharomyces cerevisiae; experiment: protein stability index of tFT-peptide fusion (C-terminal peptide) (PSI (0-1 scale)); higher = more stable (slower turnover); settings: genetic background: wild type; temperature: 30 C
Note to self: class labels come from recorded protein stability index, ranges listed here: bin 0 (below 0.6), bin 1 (0.6 to below 0.7), bin 2 (0.7 or more)

1) CKGPPVKFIVLM
bin 0
2) LEPHEIKERRPL
bin 2
3) RRSGLTNLCSLH
bin 2
4) GFFLCTCIRFWV
bin 0
5) SCYDYVILLQLS
bin 0
6) PPLLPTPRPPPP
bin 1
7) AFDRVPLVFVST
bin 0
8) VGGRVGERRGAP
bin 1
9) FDCMVRVRTTVV
bin 0
10) NLLPFLGPLPRS
bin 2
11) VGGWGGFGLFFP
bin 2
12) FQLGLVFCVCSG
bin 0
13) NKKKNLRYKHRI
bin 1
14) PRPPHPPPASPP
bin 0
15) KQNKIIKKRKKK
bin 1
16) PRSAMTRHSSCR
bin 1
17) CTLWCIPGCNMR
bin 1
18) PSPRISLSVFPC
bin 1
19) RPEAVARIFDDE
bin 2
20) SAFDVLCHVVVG
bin 1
21) SGHGGAARRPAP
bin 2
22) IVRMLTCGVGWD
bin 0
23) HGPFLSNLLPDK
bin 2
24) LFLWRFPSPFRA
bin 1
25) SPTPPPTSPSRP
bin 2
26) LGFVGVRSVRSG
bin 1
27) VCLVFVVRPCIR
bin 0
28) PSVVPSLSPLFL
bin 2

----------
test system: Saccharomyces cerevisiae; assay: protein stability index of tFT-peptide fusion (C-terminal peptide) (PSI (0-1 scale)); higher = more stable (slower turnover); conditions: genetic background: cdc53-1; temperature: 37 C
Overview of recorded protein stability index for various sequences
reported_metric: protein stability index

1) CVLVLLLRLAFL
0.552
2) IFIVLDFRCVSS
0.463
3) GGGAGVVWVRLG
0.732
4) VWFFGVVLGGLW
0.554
5) GLWLRVCIVAWV
0.122
6) IERGLMLTLCVH
0.0716
7) LVLFVVGGWVSL
0.474
8) MMEMMTKSNRIP
0.737
9) FLFCMIFIFRCF
0.196
10) YCLSCLAKASLM
0.606
11) LGCFGSSFVFCC
0.668
12) VRFPVFFIILFL
0.0743
13) FWESHVLPYRLL
0.782
14) NYVFALFYMVVA
0.311
15) VRGSPNVMWKSQ
0.778
16) VLLVSVFVATLL
0.256
17) MRGPAWVCVLYS
0.711
18) CLSGPFRSLAVF
0.629
19) GFFCVWSLLFFN
0.395
20) DIRLWISCTLWF
0.361
21) IPHLNCCCCLVR
0.497
22) VMYRGVRISWFL
0.582
23) LIRLCVAPMVCR
0.48
24) VCVLRWAVAPCR
0.342
25) SFFFTLLICFLF
0.107
26) VLCFTSAYHRLV
0.739
27) VYRILFWFLCFG
0.406
28) HRHCVSSYQKVS
0.708
29) PYSLYASSSSPL
0.749
30) FSVTTLTILCLR
0.329
31) PPSPPPLSASVP
0.698
32) VFSGGGFFLKVV
0.765
33) VLAARVVLLRCR
0.216
34) IIVLNIGSVIFC
0.588
35) ICTHPCLRLRLN
0.662
36) RVHFLIVFLCRF
0.493
37) GLVCPWLIVRFV
0.3
38) SCFRSLAVYFLC
0.624
39) HLYPFPSLHFAF
0.791
40) VFVLFLRAVACR
0.0336
41) KLLISLTWFCVL
0.476

----------
Overview of recorded protein stability index for various sequences
tested on: Saccharomyces cerevisiae; assay: protein stability index of tFT-peptide fusion in wild type (PSI (0-1 scale)); higher = more stable (slower turnover); conditions: genetic background: wild type
reported_metric: protein stability index

1) CTSCSYKFRTNN
0.267
2) ARWGVGLWRGAS
0.372
3) MSMRWTFRYWVN
0.0515
4) VRCAVGGWRLVG
0.126
5) LKILRQKMNHRN
0.493
6) PDKYNHLIKLLN
0.0777
7) PDKRNHLIKLNN
0.447
8) FSMRWTFRYRVN
0.059
9) CLVSLPILLMFR
0.0704
10) ARWRVDLWRGAS
0.214
11) PSAAASFWRVVG
0.174
12) GLYMCSVGCWFS
0.381
13) ISLAASFWRVVG
0.109
14) CKVSLPILLFFR
0.0542
15) RSLRVLLPSYFR
0.65
16) VRGAVGHWRLVG
0.157
17) LKILRQKMNHQA
0.19
18) RDIQPLPVQFLN
0.0918
19) CTSCGYKFRTNW
0.695
20) RVTRLDAISFRI
0.691
21) PSLAASFARVVG
0.622
22) RVIQPLPVQFLN
0.0531
23) KKHKSGQKQKIN
0.106
24) CLHSLPILLFFR
0.0715
25) GLYMCSVGSWFR
0.634
26) RLIQPLPLQFLN
0.0437
27) PDKRNHLIKLLR
0.683
28) AITLPMEPLLLR
0.441
29) GLYICSVGCWFR
0.181
30) MVVYLSCVACIN
0.0181
31) CDKRNHLIKLLN
0.153
32) PSLAASFWYVVG
0.655
33) ARWRVGLWRGLS
0.119
34) LKILRQKENHQN
0.365
35) LKILLQKMNHQN
0.249
36) GLYMCSVGCWFRF
0.166
37) CQVSLPILLFFR
0.0497
38) RSLRVYLPLYFR
0.268
39) PDMRNHLIKLLN
0.0863
40) ARWFVGLWRGAS
0.345
41) CTSCGYKFRTNQ
0.498
42) AITLPNCPLLLR
0.337
43) CLVSLPILLFFRN
0.0659
44) PSLAASFWRVVR
0.688
45) LKILRQKMHHQN
0.231
46) PSLAASFWRVVGH
0.681
47) FSMRWGFRYWVN
0.0673
48) RSLRVLLPLYFS
0.246
49) RLILPLPVQFLN
0.0596
50) CTSCGYKFRTNNW
0.705
51) ARWRVGLWRNAS
0.11
52) AICLPMCPLLLR
0.224
53) KIHKKGQKQKIN
0.0466
54) LVVYESCVACIN
0.343
55) CTSCGYKFRENN
0.691
56) KKHKKGQKQKINW
0.643
57) FSCRWTFRYWVN
0.065
58) CPSCGYKFRTNN
0.361
59) YKHKKGQKQKIN
0.176
60) PSLALSFWRVVG
0.183
61) RSLRVLLKLYFR
0.417
62) REIQPLPVQFLN
0.121
63) PDKRNHLIKLCN
0.22
64) LKILRQKMNDQN
0.552
65) CTSCGYKFDTNN
0.667
66) GLYMCNVGCWFR
0.385
67) RSLRVLLPLYKR
0.602
68) AITVPMCPLLLR
0.299
69) LVPYLSCVACIN
0.182
70) PVVYLSCVACIN
0.0343
71) CLVSLPILLFFRE
0.148
72) RVTRLDAGYFRI
0.673
73) ARWRVGLWRGAF
0.603
74) YRWRVGLWRGAS
0.223
75) LKILRQKNNHQN
0.425
76) FSMRWYFRYWVN
0.059
77) KKHKKKQKQKIN
0.0427
78) AITLPMCPLLVR
0.181
79) PSPAASFWRVVG
0.115
80) LVVYLECVACIN
0.0187
81) ARWRVGLMRGAS
0.596

----------
test system: Saccharomyces cerevisiae; experiment: protein stability index of tFT-peptide fusion (C-terminal peptide) (PSI (0-1 scale)); higher = more stable (slower turnover); details: genetic background: wild type; temperature: 30 C
Overview of recorded protein stability index for various sequences
reported_metric: protein stability index

1. GRGLGHWWTVRT
0.704
2. GALWPGALRFLN
0.104
3. MFWKFVFRGFWF
0.259
4. LRCCGALPLYAY
0.228
5. GGYIINRWRTKN
0.142
6. FPWGRIFLRLRT
0.441
7. FVYFLLVVCFAF
0.166
8. IFLLFPFSWRIF
0.376
9. VFVLFCAFVRAL
0.0907
10. LRVAWVCISIVA
0.0495
11. VPQQWFAETGRC
0.662
12. MFLHLGLFIMSH
0.306
13. NDVGGYFYVCSE
0.648
14. CVLLVFLHLCLA
0.263
15. RPAVVPPPFAPL
0.695
16. CFCVSVHVWLLM
0.069
17. FLSFARSSCLWF
0.666
18. GPILVWVMADWG
0.337
19. LVLELYRFARFG
0.276
20. SVHKYGFIKEIN
0.474
21. NLDRYYKKIKLI
0.0742
22. VCNYRKLIWKHH
0.0668
23. LPLHTLLLCPPV
0.382
24. FQLGLVFCVCSG
0.258
25. CPVSRHLLVLYW
0.331
26. GLLGRCPVVVFG
0.285
27. KIHILVVQIATR
0.0319
28. TFRVRRQKNRNM
0.099
29. RLHCFSPILCPI
0.436
30. LSRFRYFVLTSL
0.171
31. VCFFSSSCFLLV
0.45
32. MRGPAWVCVLYS
0.339
33. ACGGGSNVHRAG
0.66
34. SFLLVWCLLPEI
0.299
35. FLLGWFLFFVCS
0.283
36. IHRSPLTLPLLV
0.435
37. CGSLDLPHQCLL
0.693
38. GPPPPPSLLLLC
0.211
39. ALLMVCFGFSLV
0.367
40. RLINCIYVLMLP
0.274
41. FFCLVEVFVGVF
0.0928

Source: the supplement of paper PMC10724198
